# System: Mus musculus
# PROCEDURE TEXT: Toxicity in po dosed mouse assessed as catalepsy
# Format: organism-based
# COND: in vivo
Entries and their measured ED50 follow.

MOL SMILES	UNIT STRING	ED50
CN1CCN(C2=Nc3cc(Cl)ccc3Nc3ccccc32)CC1	mg/kg	55.89
O=C(CCCN1CCC(O)(c2ccc(Cl)cc2)CC1)c1ccc(F)cc1	mg/kg	0.47
O=[N+]([O-])c1ccc(S(=O)(=O)N2CCC(CN3CCC(c4noc5cc(F)ccc45)CC3)CC2)cc1	mg/kg	43.53
Cc1nc2n(c(=O)c1CCN1CCC(c3noc4cc(F)ccc34)CC1)CCCC2	mg/kg	0.38

###

# TESTED ON: 5-hydroxytryptamine receptor 2A (Rattus norvegicus, UniProt P14842)
# Sequence (P14842 whole entry): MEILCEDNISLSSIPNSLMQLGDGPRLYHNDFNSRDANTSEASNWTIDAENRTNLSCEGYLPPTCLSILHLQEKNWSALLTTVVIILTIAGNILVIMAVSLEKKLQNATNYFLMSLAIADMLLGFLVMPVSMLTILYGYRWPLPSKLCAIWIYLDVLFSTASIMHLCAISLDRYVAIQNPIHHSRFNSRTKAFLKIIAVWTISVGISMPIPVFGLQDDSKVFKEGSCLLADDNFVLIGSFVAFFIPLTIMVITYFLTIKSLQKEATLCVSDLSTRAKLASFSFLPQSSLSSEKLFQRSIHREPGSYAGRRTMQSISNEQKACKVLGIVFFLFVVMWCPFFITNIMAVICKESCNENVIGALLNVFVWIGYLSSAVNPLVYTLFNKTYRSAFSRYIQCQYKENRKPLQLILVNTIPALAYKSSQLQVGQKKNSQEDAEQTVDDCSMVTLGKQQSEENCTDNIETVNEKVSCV
Attribute: log10(Ki)
ENDPOINT: log10(Ki) (log10 of the value in nM)

COMPOUND	ENDPOINT	READING
O=C(NCc1ccccc1)N1CCC(CN2CCC(c3noc4cc(F)ccc34)CC2)CC1	log10(Ki)	2.42
O=S(=O)(c1ccc(C(F)(F)F)cc1)N1CCC(CN2CCC(c3noc4cc(F)ccc34)CC2)CC1	log10(Ki)	1.20
O=S(=O)(c1ccc(F)cc1)N1CCC(CN2CCC(c3noc4cc(F)ccc34)CC2)CC1	log10(Ki)	2.57
CC(C)(C)C(=O)N1CCC(CN2CCC(c3noc4cc(F)ccc34)CC2)CC1	log10(Ki)	2.49
N#Cc1ccc(S(=O)(=O)N2CCC(CN3CCC(c4noc5cc(F)ccc45)CC3)CC2)cc1	log10(Ki)	2.05
O=[N+]([O-])c1ccc(S(=O)(=O)N2CCC(CN3CCC(c4noc5cc(F)ccc45)CC3)CC2)cc1	log10(Ki)	-0.10
O=[N+]([O-])c1ccc(S(=O)(=O)N2CCCC(CN3CCC(c4noc5cc(F)ccc45)CC3)C2)cc1 (centres undefined)	log10(Ki)	1.48
CN(C)C(=O)N1CCC(CN2CCC(c3noc4cc(F)ccc34)CC2)CC1	log10(Ki)	2.76

###

# TESTED ON: D(2) dopamine receptor (Rattus norvegicus, UniProt P61169)
# Sequence (P61169 whole entry): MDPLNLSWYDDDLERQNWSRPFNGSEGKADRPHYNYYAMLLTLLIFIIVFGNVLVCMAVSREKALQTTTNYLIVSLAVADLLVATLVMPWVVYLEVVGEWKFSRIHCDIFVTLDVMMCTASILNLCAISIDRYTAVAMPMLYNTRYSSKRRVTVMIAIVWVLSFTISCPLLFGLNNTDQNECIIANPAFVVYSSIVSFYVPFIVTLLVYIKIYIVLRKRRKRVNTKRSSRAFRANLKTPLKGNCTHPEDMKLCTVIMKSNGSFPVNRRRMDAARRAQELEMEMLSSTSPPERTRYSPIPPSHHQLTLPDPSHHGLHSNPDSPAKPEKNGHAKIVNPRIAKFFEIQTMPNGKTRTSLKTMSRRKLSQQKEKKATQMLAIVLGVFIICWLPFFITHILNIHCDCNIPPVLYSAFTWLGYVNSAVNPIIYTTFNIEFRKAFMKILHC
# PROCEDURE TEXT: Displacement of [3H]spiperone from dopamine D2 receptor in rat striatum
Please note: Ki exactly at 200 nM is 0.0. Only values below 200 nM get 1.0.

MOLECULE	GROUP
O=S(=O)(c1cccs1)N1CCC(CN2CCC(c3noc4cc(F)ccc34)CC2)CC1	0.0
Cc1ccc(S(=O)(=O)N2CCC(CN3CCC(c4noc5cc(F)ccc45)CC3)CC2)cc1	0.0
COc1ccc(C(=O)N2CCC(CN3CCC(c4noc5cc(F)ccc45)CC3)CC2)cc1	0.0
O=C(/C=C/c1ccccc1)N1CCC(CN2CCC(c3noc4cc(F)ccc34)CC2)CC1	0.0
O=C(Nc1ccc(Cl)cc1)N1CCC(CN2CCC(c3noc4cc(F)ccc34)CC2)CC1	1.0
O=S(=O)(c1ccc(C(F)(F)F)cc1)N1CCC(CN2CCC(c3noc4cc(F)ccc34)CC2)CC1	1.0
O=[N+]([O-])c1ccc(S(=O)(=O)N2CCC(CCN3CCC(c4noc5cc(F)ccc45)CC3)CC2)cc1	0.0
O=S(=O)(c1ccc(F)cc1)N1CCC(CN2CCC(c3noc4cc(F)ccc34)CC2)CC1	0.0
O=C(NCc1ccccc1)N1CCC(CN2CCC(c3noc4cc(F)ccc34)CC2)CC1	0.0
O=[N+]([O-])c1cccc(S(=O)(=O)N2CCC(CN3CCC(c4noc5cc(F)ccc45)CC3)CC2)c1	0.0
O=[N+]([O-])c1ccc(S(=O)(=O)N2CCCC(CN3CCC(c4noc5cc(F)ccc45)CC3)C2)cc1 (centres undefined)	0.0
O=C(c1ccccc1)N1CCC(CN2CCC(c3noc4cc(F)ccc34)CC2)CC1	0.0
CC(C)(C)C(=O)N1CCC(CN2CCC(c3noc4cc(F)ccc34)CC2)CC1	0.0
O=S(=O)(c1ccc2ccccc2c1)N1CCC(CN2CCC(c3noc4cc(F)ccc34)CC2)CC1	0.0
O=S(=O)(c1ccccc1)N1CCC(CN2CCC(c3noc4cc(F)ccc34)CC2)CC1	0.0
O=[N+]([O-])c1ccc(S(=O)(=O)N2CCC(CN3CCC(c4noc5cc(F)ccc45)CC3)CC2)cc1	1.0
O=C(c1ccc(F)cc1)N1CCC(CN2CCC(c3noc4cc(F)ccc34)CC2)CC1	1.0
Cc1ccc(NC(=O)N2CCC(CN3CCC(c4noc5cc(F)ccc45)CC3)CC2)cc1	1.0
CCN(C)C(=O)N1CCC(CN2CCC(c3noc4cc(F)ccc34)CC2)CC1	0.0
O=C(C1CC1)N1CCC(CN2CCC(c3noc4cc(F)ccc34)CC2)CC1	0.0
CN(C)C(=O)N1CCC(CN2CCC(c3noc4cc(F)ccc34)CC2)CC1	0.0
N#Cc1ccc(S(=O)(=O)N2CCC(CN3CCC(c4noc5cc(F)ccc45)CC3)CC2)cc1	1.0
O=[N+]([O-])c1ccccc1S(=O)(=O)N1CCC(CN2CCC(c3noc4cc(F)ccc34)CC2)CC1	0.0

###

# Test system: Mus musculus
# PROCEDURE TEXT: Antipsychotic activity in po dosed mouse assessed as reversal of MK-801-induced hyperactivity
# Format: functional

MOL SMILES	TESTED ON	ED50 (mg/kg)
CN1CCN(C2=Nc3cc(Cl)ccc3Nc3ccccc32)CC1	Mus musculus	2.11
O=[N+]([O-])c1ccc(S(=O)(=O)N2CCC(CN3CCC(c4noc5cc(F)ccc45)CC3)CC2)cc1	Mus musculus	0.71
Cc1nc2n(c(=O)c1CCN1CCC(c3noc4cc(F)ccc34)CC1)CCCC2	Mus musculus	0.013
O=C(CCCN1CCC(O)(c2ccc(Cl)cc2)CC1)c1ccc(F)cc1	Mus musculus	0.14

###

So I've got pKi readings for 5-hydroxytryptamine receptor 1A (Rattus norvegicus), take a look.
pKi: −log10 of the molar value.
ENDPOINT: pKi

COMPOUND	ENDPOINT	VALUE PREFIX	READING
O=[N+]([O-])c1cccc(S(=O)(=O)N2CCC(CN3CCC(c4noc5cc(F)ccc45)CC3)CC2)c1	pKi	=	6.04
Cc1ccc(NC(=O)N2CCC(CN3CCC(c4noc5cc(F)ccc45)CC3)CC2)cc1	pKi	=	6.56
O=[N+]([O-])c1ccccc1S(=O)(=O)N1CCC(CN2CCC(c3noc4cc(F)ccc34)CC2)CC1	pKi	=	6.00
CCN(C)C(=O)N1CCC(CN2CCC(c3noc4cc(F)ccc34)CC2)CC1	pKi	<	5.00
O=[N+]([O-])c1ccc(S(=O)(=O)N2CCC(CCN3CCC(c4noc5cc(F)ccc45)CC3)CC2)cc1	pKi	=	5.86
O=C(c1ccccc1)N1CCC(CN2CCC(c3noc4cc(F)ccc34)CC2)CC1	pKi	=	6.22
O=S(=O)(c1ccccc1)N1CCC(CN2CCC(c3noc4cc(F)ccc34)CC2)CC1	pKi	<	5.00
O=[N+]([O-])c1ccc(S(=O)(=O)N2CCCC(CN3CCC(c4noc5cc(F)ccc45)CC3)C2)cc1 (stereo not drawn)	pKi	=	6.00
